Assay: Equilibrium solubility of crystalline active in digestion medium / digested placebo LMP formulation
Format: physicochemical
Settings: 37 °C, pH 6.5, aqueous with cosolvent or surfactant or cyclodextrin, thermodynamic from solid; digested placebo LMP formulation; read-out: Equilibrium solubility of crystalline active in digested LMP formulations
Excerpt: In both cases, the majority of the active was solubilized in a lipid phase that phase-separated on centrifugation of the samples and most likely consisting of larger lipophilic colloids including multi-lamellar vesicles. Active drug in the aqueous phase (consisting of BS/PL mixed-micelles, lipid-enriched BS/PL mixed micelles and small vesicles) is considered the most readily available form for absorption. […]
measurementLabel: solubility thermodynamic (µg/mL)

compound: CC(=O)O[C@H]1CC[C@@]2(C)C(=CC[C@@H]3[C@@H]2CC[C@]2(C)C(c4cccnc4)=CC[C@@H]32)C1 [Abiraterone acetate]
measuredResult: 121
